assay: recombinant barcode read abundance after kanamycin selection (control-corrected) (log10(CPM+1)); higher = more efficient recombination; sequences stand for … in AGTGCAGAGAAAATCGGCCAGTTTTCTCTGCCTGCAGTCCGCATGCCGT…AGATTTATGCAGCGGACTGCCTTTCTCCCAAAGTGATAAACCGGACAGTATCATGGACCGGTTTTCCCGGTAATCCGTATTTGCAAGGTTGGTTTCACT; site = the 11-nt target;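 further: IS621 recombinase and bridge RNA in Escherichia coli cells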
Measured recombinant barcode read abundance (log10) of individual entries
reported endpoint: recombinant barcode read abundance (log10)

{"polymer sequence": "CTACTTCCTTGGGTTCTAACCTGTTGCGT (site CTACTTCCTAC)", "measured value": 1.69}
{"polymer sequence": "CTATGTGCTTGGGTTCTAACCTGTTGCCT (site CTATGTGCTAT)", "measured value": 0.305}
{"polymer sequence": "CTTTCCTCTTGGGTTCTAACCTGTTGCCT (site CCTTCCTCTAG)", "measured value": 0.0332}
{"polymer sequence": "CTGCAGACTTGGGTTCTAACCTGTTGCCG (site CTCCAGACTCT)", "measured value": 0.37}
{"polymer sequence": "TGGCCCTCTTGGGTTCTAACCTGTTGCTT (site TGGCCCTCTTA)", "measured value": 0.056}

* * *

experiment: recombinant barcode read abundance after kanamycin selection (control-corrected) (log10(CPM+1)); higher = more efficient recombination; sequences stand for … in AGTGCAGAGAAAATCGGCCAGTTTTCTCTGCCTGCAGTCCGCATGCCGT…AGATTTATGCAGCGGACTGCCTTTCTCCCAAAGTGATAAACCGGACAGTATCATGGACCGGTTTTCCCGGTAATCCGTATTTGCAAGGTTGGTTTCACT; site = the 11-nt target
reported endpoint: recombinant barcode read abundance (log10)

{"polymer sequence": "ATTTGAACTTGGGTTCTAACCTGTTGCCT (site ATTTGTACTAG)", "measured value": 0.101}
{"polymer sequence": "TCGAGTCCTTGGGTTCTAACCTGTTGCCT (site TCGAGTCCTAG)", "measured value": 0.101}
{"polymer sequence": "TCTTTACCTTGGGTTCTAACCTGTTGCCT (site GCTTTACCTAG)", "measured value": 0.043}
{"polymer sequence": "TTGATGACTTGGGTTCTAACCTGTTGCCT (site TTGATGACTAG)", "measured value": 1.25}
{"polymer sequence": "CTAAGTTCTTGGGTTCTAACCTGTTGCGT (site CTAAGTTCTAC)", "measured value": 1.77}
{"polymer sequence": "GCGGGTCCTTGGGTTCTAACCTGTTGCGT (site GCGGGTCCTAC)", "measured value": 2.98}
{"polymer sequence": "CATCCGTCTTGGGTTCTAACCTGTTGCTT (site CATCCGTCTAA)", "measured value": 1.24}
{"polymer sequence": "AGGCAGTCTTGGGTTCTAACCTGTTGCCT (site AGGCCGTCTAC)", "measured value": 0.0845}
{"polymer sequence": "ATACGGACTTGGGTTCTAACCTGTTGCAG (site ATACGGACTCT)", "measured value": 2.77}
{"polymer sequence": "TGACGTCCTTGGGTTCTAACCTGTTGCCT (site TGACGTCCTAT)", "measured value": 0.057}
{"polymer sequence": "GACCAGCCTTGGGTTCTAACCTGTTGCTT (site GACCAGCCTAT)", "measured value": 0.746}
{"polymer sequence": "AGTAAGACTTGGGTTCTAACCTGTTGCAT (site AGTAAGACTAA)", "measured value": 0.197}
{"polymer sequence": "GTAAGATCTTGGGTTCTAACCTGTTGCAC (site AGGCCCGCTCC)", "measured value": 0.0896}
{"polymer sequence": "ATTCGGCCTTGGGTTCTAACCTGTTGCCT (site ATTCGGCCTAG)", "measured value": 0.0683}
{"polymer sequence": "GTAAACTCTTGGGTTCTAACCTGTTGCCT (site GTAAACTCTAG)", "measured value": 1.98}
{"polymer sequence": "AGGACGACTTGGGTTCTAACCTGTTGCCT (site AGGACGACTAG)", "measured value": 0.376}
{"polymer sequence": "CAAGACGCTTGGGTTCTAACCTGTTGCCT (site CAAGACGCTAG)", "measured value": 1.4}
{"polymer sequence": "GCTCCGTCTTGGGTTCTAACCTGTTGCTT (site ACTCCGTCTTA)", "measured value": 0.047}
{"polymer sequence": "CTAGGAGCTTGGGTTCTAACCTGTTGCTT (site CTAGGAGCTTA)", "measured value": 0.0974}
{"polymer sequence": "GCGTTTGCTTGGGTTCTAACCTGTTGCCT (site GAGTTTGCTAG)", "measured value": 0.106}
